Data origin: patent US11746100B2

- ASSAYED_SYSTEM: human ferroportin (Homo sapiens, UniProt Q9NP59)
- Construct: luciferase reporter (read with the Nano-Glo Luciferase Assay System); expressed in transfected cells; host or cells: CHO cells, stably transfected, expression induced with doxycycline
- Sequence (Q9NP59 whole entry): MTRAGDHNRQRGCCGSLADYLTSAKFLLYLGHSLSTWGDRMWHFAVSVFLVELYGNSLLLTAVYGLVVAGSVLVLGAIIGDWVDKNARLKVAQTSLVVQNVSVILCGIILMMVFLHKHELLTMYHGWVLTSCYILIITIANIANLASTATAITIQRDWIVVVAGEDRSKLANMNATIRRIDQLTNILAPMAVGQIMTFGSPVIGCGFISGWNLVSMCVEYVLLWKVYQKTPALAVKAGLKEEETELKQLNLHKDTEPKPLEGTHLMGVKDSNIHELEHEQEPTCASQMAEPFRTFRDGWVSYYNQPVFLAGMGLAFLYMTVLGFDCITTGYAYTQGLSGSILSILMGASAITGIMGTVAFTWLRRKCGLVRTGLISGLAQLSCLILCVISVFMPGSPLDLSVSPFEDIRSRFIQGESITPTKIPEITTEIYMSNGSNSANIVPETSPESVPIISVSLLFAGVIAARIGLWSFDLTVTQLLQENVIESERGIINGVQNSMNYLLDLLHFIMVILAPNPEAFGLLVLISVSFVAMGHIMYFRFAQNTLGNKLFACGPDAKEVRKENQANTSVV
- ASSAY_PROCEDURE: Biological in-vitro ferroportin internalization assay (luciferase reporter)
- Type: cell-based
- ASSAY_SETUP: average pEC50; stably-transfected CHO cell line expressing human ferroportin tagged to a luciferase reporter; 6 h incubation with test compound
- Method: The protocol for this assay is generally as described in WO2018/128828, incorporated herein by reference in its entirety. Functional internalization of ferroportin protein was measured using a stably-transfected CHO cell line expressing the human ferroportin tagged to a luciferase reporter. […] Cells were incubated with the test compounds for 6 h, and subsequently luciferase activity was measured using the Nano-Glo Luciferase Assay System and Glomax (Promega, Madison, Wis.). […]
RECORDED_ENDPOINT: pEC50

COMPOUND	QUANTITATIVE_RESULT
CN(CC(=O)NC(C)(C)C)c1nc(-c2cccc(OCCO)n2)nc2c1CCC2	6.3
CN(CC(=O)NC(C)(C)C)c1nc(-c2cc(OCCN3CCCC3)ccn2)nc2c1CCC2	8.3
CN(CC(=O)NC(C)(C)C)c1nc(-c2cc3c(cn2)OCCO3)nc2c1CCC2	7.8
Cc1ccnc(-c2nc3c(c(N(C)CC(=O)NC(C)(C)C)n2)CCC3)c1	7.6
C[C@H](O)COc1ccnc(-c2nc3c(c(N(C)CC(=O)NC4(C)CCC4)n2)CCC3)c1	8
CN(CC(=O)N1CCCCC1)c1nc(-c2ccccn2)nc2c1CCC2	7.1
CN(CC(=O)NC1(C)CCOC1)c1nc(-c2cc3cn[nH]c3cn2)nc2c1CCC2 (centres unmarked)	7.2
COc1ccnc(-c2nc3c(c(N(C)CC(=O)NC4CCOCC4)n2)CCC3)c1	6.9

* * *

- ASSAYED_SYSTEM: human ferroportin (Homo sapiens, UniProt Q9NP59)
- Construct: luciferase reporter (read with the Nano-Glo Luciferase Assay System); expressed in transfected cells; host or cells: CHO cells, stably transfected, expression induced with doxycycline
- ASSAY_PROCEDURE: Biological in-vitro ferroportin internalization assay (luciferase reporter)
- Type: cell-based
- ASSAY_SETUP: average pEC50; stably-transfected CHO cell line expressing human ferroportin tagged to a luciferase reporter; 6 h incubation with test compound
# pEC50 per entry
RECORDED_ENDPOINT: pEC50

MOLECULE	ASSAYED_SYSTEM	QUANTITATIVE_RESULT
COc1ccc(NC(=O)CN(C)c2nc(-c3cc(OCCN(C)C)ccn3)nc3c2CCC3)cn1 [Compound 344]	human ferroportin (Homo sapiens, UniProt Q9NP59)	7.6
CN(CC(=O)NC1CCCCC1)c1nc(-c2cn(C)cn2)nc2c1CCC2 [Compound 142]	human ferroportin (Homo sapiens, UniProt Q9NP59)	7.4
CCN(CC(=O)NC(C)(C)C)c1nc(-c2cc(OC)ccn2)nc2c1CCC2 [Compound 126]	human ferroportin (Homo sapiens, UniProt Q9NP59)	7.9
Cc1ccc(NC(=O)CN(C)c2nc(-c3cc(OCCO)ccn3)nc3c2CCC3)cn1 [Compound 199]	human ferroportin (Homo sapiens, UniProt Q9NP59)	7.9
CN(C)CCOc1ccnc(-c2nc3c(c(N(C)CC(=O)NC4(C(F)(F)F)CC4)n2)CCC3)c1 [Compound 418]	human ferroportin (Homo sapiens, UniProt Q9NP59)	7.5
Cc1ccc(NC(=O)CN(C)c2nc(-c3cc(OCC4(O)CC4)ccn3)nc3c2CCC3)cn1 [Compound 330]	human ferroportin (Homo sapiens, UniProt Q9NP59)	7.8
CN(CC(=O)NC1CCCCC1)c1nc(-c2cc(OCCO)ccn2)nc2c1CCC2 [Compound 144]	human ferroportin (Homo sapiens, UniProt Q9NP59)	7.5
CN(CC(=O)NC1CCCC1)c1nc(-c2cn(C)cn2)nc2c1CCC2 [Compound 150]	human ferroportin (Homo sapiens, UniProt Q9NP59)	7.3

* * *

Let's look at some compounds and their measured pEC50.
- ASSAYED_SYSTEM: human ferroportin (Homo sapiens, UniProt Q9NP59)
- Construct: luciferase reporter (read with the Nano-Glo Luciferase Assay System); expressed in transfected cells; host or cells: CHO cells, stably transfected, expression induced with doxycycline
- ASSAY_PROCEDURE: Biological in-vitro ferroportin internalization assay (luciferase reporter)
- Assay type: cell-based
- ASSAY_SETUP: average pEC50; stably-transfected CHO cell line expressing human ferroportin tagged to a luciferase reporter; 6 h incubation with test compound
- Description: The protocol for this assay is generally as described in WO2018/128828, incorporated herein by reference in its entirety. Functional internalization of ferroportin protein was measured using a stably-transfected CHO cell line expressing the human ferroportin tagged to a luciferase reporter. […] Cells were incubated with the test compounds for 6 h, and subsequently luciferase activity was measured using the Nano-Glo Luciferase Assay System and Glomax (Promega, Madison, Wis.). […]
RECORDED_ENDPOINT: pEC50

COMPOUND	RECORDED_ENDPOINT	QUANTITATIVE_RESULT
COc1ccc(NC(=O)CN(C)c2nc(-c3cc4cccnc4cn3)nc3c2CCC3)cn1	pEC50	6.4
c1ccc(-c2nc3c(c(N4CCCOCC4)n2)CCC3)nc1	pEC50	6.1
COc1ccc(NC(=O)CN(C)c2nc(-c3cn(C)cn3)nc3c2CCC3)nc1	pEC50	7.8
COc1ccnc(-c2nc3c(c(N(C)CC(=O)N4CCOCC4)n2)CCC3)c1	pEC50	6.9
CCOc1ccnc(-c2nc3c(c(N(C)CC(=O)NC(C)(C)C)n2)CCC3)c1	pEC50	8.3
COc1ccc(NC2CCCN(c3nc(-c4ccccn4)nc4c3CCC4)C2)cc1 (centres unmarked)	pEC50	6.3
CCNC(=O)CN(C)c1nc(-c2cc(OCC(O)(CC)CC)ccn2)nc2c1CCC2	pEC50	8
C[C@H](C(=O)NC1(C)CC1)N(C)c1nc(-c2ccccn2)nc2c1CCC2	pEC50	6.9

* * *

- ASSAYED_SYSTEM: human ferroportin (Homo sapiens)
- Construct: luciferase reporter (read with the Nano-Glo Luciferase Assay System); expressed in transfected cells; host or cells: CHO cells, stably transfected, expression induced with doxycycline
- ASSAY_PROCEDURE: Biological in-vitro ferroportin internalization assay (luciferase reporter)
- Type: cell-based
- ASSAY_SETUP: average pEC50; stably-transfected CHO cell line expressing human ferroportin tagged to a luciferase reporter; 6 h incubation with test compound
- Procedure: The protocol for this assay is generally as described in WO2018/128828, incorporated herein by reference in its entirety. Functional internalization of ferroportin protein was measured using a stably-transfected CHO cell line expressing the human ferroportin tagged to a luciferase reporter. […] Cells were incubated with the test compounds for 6 h, and subsequently luciferase activity was measured using the Nano-Glo Luciferase Assay System and Glomax (Promega, Madison, Wis.). […]

MOLECULE	pEC50
CO[C@H]1CCN(CCOc2ccnc(-c3nc4c(c(N(C)CC(=O)NC(C)(C)C)n3)CCC4)c2)C1	8.0
CC(C)[C@H](O)COc1ccnc(-c2nc3c(c(N(C)CC(=O)NC(C)(C)C)n2)CCC3)c1	8.4
CN(CC(=O)Nc1ccc(F)cc1)c1nc(-c2cc3cn[nH]c3cn2)nc2c1CCC2	7.5
CN(CC(=O)NC(C)(C)C)c1nc(-c2cc(OC[C@H]3CCCN3C)ccn2)nc2c1CCC2	8.2
CN(c1nc(-c2ccccn2)nc2c1CCC2)[C@@H](COC(C)(C)C)C(=O)NC(C)(C)C	7.2
CN(C)C(=O)COc1ccnc(-c2nc3c(c(N(C)CC(=O)NC(C)(C)C)n2)CCC3)c1	7.6
CN(c1nc(-c2cc(OCCO)ccn2)nc2c1CCC2)[C@@H]1CCCN(c2cccc(F)c2)C1=O	7.1
C[C@H](C(=O)NC(C)(C)C)N(C)c1nc(-c2cn(C)cn2)nc2c1CCC2	8

* * *

- ASSAYED_SYSTEM: human ferroportin (Homo sapiens)
- Construct: luciferase reporter (read with the Nano-Glo Luciferase Assay System); expressed in transfected cells; host or cells: CHO cells, stably transfected, expression induced with doxycycline
- ASSAY_PROCEDURE: Biological in-vitro ferroportin internalization assay (luciferase reporter)
- Type: cell-based
- ASSAY_SETUP: average pEC50; stably-transfected CHO cell line expressing human ferroportin tagged to a luciferase reporter; 6 h incubation with test compound
- Method: The protocol for this assay is generally as described in WO2018/128828, incorporated herein by reference in its entirety. Functional internalization of ferroportin protein was measured using a stably-transfected CHO cell line expressing the human ferroportin tagged to a luciferase reporter. […] Cells were incubated with the test compounds for 6 h, and subsequently luciferase activity was measured using the Nano-Glo Luciferase Assay System and Glomax (Promega, Madison, Wis.). […]
pEC50 by entry:

COMPOUND	pEC50
CN(CC(=O)Nc1ccc(Cl)cc1)c1nc(-c2cc(OC3COC3)ccn2)nc2c1CCC2	7.9
COc1cnc(NC(=O)CN(C)c2nc(-c3cc(OCCO)ccn3)nc3c2CCC3)cn1	7.6
CN(CC(=O)NC1CC1)c1nc(-c2cc(OCC(C)(C)O)ccn2)nc2c1CCC2	8.1
CN(c1nc(-c2ccccn2)nc2c1CCC2)[C@@H]1CCN(c2ccccc2)C1=O	6.9
CN(CC(=O)NC(C)(C)C)c1nc(-c2ccccn2)nc2c1CCCC2	6.9
CN(CC(=O)NC(C)(C)C)c1nc(-c2cc3[nH]ncc3cn2)nc2c1CCC2	7.8
CN(CC(=O)N1CCCCC1)c1nc(-c2cc3ccccc3cn2)nc2c1CCC2	6.9
CN(CC(=O)NC1CCCC1)c1nc(-c2cc(OCC(C)(C)O)ccn2)nc2c1CCC2	8.2
COc1ccc(NC(=O)CN(C)c2nc(-c3cc(OCC(C)(C)O)ccn3)nc3c2CCC3)nc1	7.8
CN(CC(=O)Nc1cn(C)cn1)c1nc(-c2cc3ccccc3cn2)nc2c1CCC2	7.4
CN(CC(=O)Nc1ccc(F)cc1)c1nc(-c2cc(OCCO)ccn2)nc2c1CCC2	8.1
CC(C)NC(=O)[C@@H](C)N(C)c1nc(-c2cc(OCC(C)(C)O)ccn2)nc2c1CCC2	8.1
Cc1ccc(NC(=O)CN(C)c2nc(-c3cc4c(CO)cccc4cn3)nc3c2CCC3)cn1	7.5
COc1ccc2c(c1)CCN2C(=O)CN(C)c1nc(-c2cc(OCCO)ccn2)nc2c1CCC2	8.4
CN(C)CCSc1ccnc(-c2nc3c(c(N(C)CC(=O)NC(C)(C)C)n2)CCC3)c1	8.2
CCn1cncc1-c1nc2c(c(N(C)CC(=O)NC(C)(C)C)n1)CCC2	5.4
CN(CC(=O)Nc1cccc(F)c1)c1nc(-c2cc(OCC3(O)CC3)ccn2)nc2c1CCC2	7.4
COc1ccnc(-c2nc3c(c(N(C)CC(=O)Nc4cccc(F)c4)n2)CCC3)c1	7.8
CN(CC(=O)NC1(C(F)(F)F)CC1)c1nc(-c2cn(C)cn2)nc2c1CCC2	7.2
CN(C)CCOc1ccnc(-c2nc3c(c(N(C)CC(=O)NC(C)(C)C)n2)CCC3O)c1 (centres unmarked)	6.3
CCC(O)(CC)COc1ccnc(-c2nc3c(c(N(C)CC(=O)NC)n2)CCC3)c1	7.8
CC(C(=O)NC(C)(C)C)N(C)c1nc(-c2ccccn2)nc2c1CCC2 (centres unmarked)	7.4
CSCC[C@@H](C(=O)NC(C)(C)C)N(C)c1nc(-c2ccccn2)nc2c1CCC2	6.9
COc1ccnc(-c2nc3c(c(N(C)CC(=O)N[C@H]4CCC[C@H]4O)n2)CCC3)c1	7.2
CC(C)NC(=O)CN(C)c1nc(-c2cc(OCCN(C)C)ccn2)nc2c1CCC2	7.5
CN(CC(=O)N1CCCCC1)c1nc(-c2cc(O[C@H]3CCOC3)ccn2)nc2c1CCC2	7.7
CN(C)CCOc1ccnc(-c2nc3c(c(N(C)CC(=O)NC(C)(C)C)n2)C(O)CC3)c1 (centres unmarked)	6.9
CN(C)CCOc1ccnc(-c2nc3c(c(N(C)CC(=O)Nc4cnn(C5CC5)c4)n2)CCC3)c1	7.3
COc1ccnc(-c2nc3c(c(N(C)CC(=O)NCCN(C)C)n2)CCC3)c1	6.7
CN(CC(=O)NC(C)(C)C)c1nc(-c2cc(OCC(C)(C)O)ccn2)nc2c1CCC2	8.2
CN(CC(=O)Nc1cccc(F)c1)c1nc(-c2cc(OCCN3CCCC3)ccn2)nc2c1CCC2	7.9
CN(CC(=O)NC(C)(C)C)c1nc(-c2cc(OCCN3C[C@H]4C[C@@H]3CO4)ccn2)nc2c1CCC2	8.4
